Target: human IGF-I receptor (human, UniProt P08069 31-1367)
Sequence (P08069 31-1367 limits assumed): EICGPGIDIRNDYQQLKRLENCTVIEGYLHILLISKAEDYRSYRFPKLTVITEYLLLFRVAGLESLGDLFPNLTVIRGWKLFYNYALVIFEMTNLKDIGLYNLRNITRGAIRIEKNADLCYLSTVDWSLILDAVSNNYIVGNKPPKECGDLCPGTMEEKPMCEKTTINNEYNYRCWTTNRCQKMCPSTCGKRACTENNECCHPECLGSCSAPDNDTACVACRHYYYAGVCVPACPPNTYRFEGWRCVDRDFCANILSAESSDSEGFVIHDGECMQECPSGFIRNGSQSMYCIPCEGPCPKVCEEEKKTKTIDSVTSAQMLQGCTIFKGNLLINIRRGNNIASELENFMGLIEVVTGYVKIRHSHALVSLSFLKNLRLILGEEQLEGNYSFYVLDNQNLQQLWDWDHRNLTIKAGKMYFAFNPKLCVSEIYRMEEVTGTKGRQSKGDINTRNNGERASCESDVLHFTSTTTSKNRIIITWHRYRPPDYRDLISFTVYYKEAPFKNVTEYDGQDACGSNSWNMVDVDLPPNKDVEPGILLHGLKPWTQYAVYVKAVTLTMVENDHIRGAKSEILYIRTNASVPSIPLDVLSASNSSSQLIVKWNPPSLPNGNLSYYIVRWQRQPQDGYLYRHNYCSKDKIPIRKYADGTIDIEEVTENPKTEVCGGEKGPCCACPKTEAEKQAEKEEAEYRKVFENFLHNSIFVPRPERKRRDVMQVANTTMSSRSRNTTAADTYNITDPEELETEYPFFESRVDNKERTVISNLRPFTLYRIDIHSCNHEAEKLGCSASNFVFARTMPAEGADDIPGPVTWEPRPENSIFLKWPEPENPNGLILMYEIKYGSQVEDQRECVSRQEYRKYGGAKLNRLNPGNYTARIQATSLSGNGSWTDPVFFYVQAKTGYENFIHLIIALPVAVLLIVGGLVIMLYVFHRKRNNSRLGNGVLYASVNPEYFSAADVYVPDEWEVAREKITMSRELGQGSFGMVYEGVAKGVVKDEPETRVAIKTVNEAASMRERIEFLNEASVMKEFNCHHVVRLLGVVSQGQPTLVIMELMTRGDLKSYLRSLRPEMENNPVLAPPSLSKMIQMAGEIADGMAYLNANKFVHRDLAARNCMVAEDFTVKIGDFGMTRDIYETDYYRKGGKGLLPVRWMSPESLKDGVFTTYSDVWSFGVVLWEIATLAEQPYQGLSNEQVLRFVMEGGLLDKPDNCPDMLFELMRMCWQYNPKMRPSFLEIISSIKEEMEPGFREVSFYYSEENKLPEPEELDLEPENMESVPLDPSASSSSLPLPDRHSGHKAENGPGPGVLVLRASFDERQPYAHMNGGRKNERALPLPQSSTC
Assay: cell-based or functional assay
test.readout: Proliferation activity on human myoblast cells (%), 0.005 nM, Experiment 1
Please reply with the bare figure in % and do not write the unit itself.

Q) Data request, read-out Proliferation activity on human myoblast cells (%), 0.005 nM, Experiment 1, for anti-IGF-I receptor humanized antibody R11-16C (antibody, human IgG4, V domains shown, also called R11-16C antibody; R11-16VH + R11-16VL-C36A) VH: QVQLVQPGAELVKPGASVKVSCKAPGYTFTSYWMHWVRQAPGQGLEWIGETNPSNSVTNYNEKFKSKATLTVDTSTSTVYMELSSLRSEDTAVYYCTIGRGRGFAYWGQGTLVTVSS VL: DIQMTQSPSSLSASVGDRVTITCRASQNINFWLSWAQQKPGKAPKLLIYKASNLHTGVPSRFSGSGSGTDFTFTISSLQPEDIATYYCLQGQSYPYTFGQGTKLEIK
A) 150

Q) And for anti-IGF-I receptor humanized antibody R11-16D (antibody, human IgG4, V domains shown, also called R11-16D antibody; R11-16VH + R11-16VL-C36S) VH: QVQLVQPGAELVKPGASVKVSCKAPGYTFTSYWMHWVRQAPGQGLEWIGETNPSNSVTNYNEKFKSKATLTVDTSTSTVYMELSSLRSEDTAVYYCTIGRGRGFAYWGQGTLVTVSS VL: DIQMTQSPSSLSASVGDRVTITCRASQNINFWLSWSQQKPGKAPKLLIYKASNLHTGVPSRFSGSGSGTDFTFTISSLQPEDIATYYCLQGQSYPYTFGQGTKLEIK ?
A) 144
